biological target: Acetyl-CoA carboxylase 2 (Homo sapiens, UniProt O00763); experiment: Inhibition of recombinant human ACC2 expressed in CHO cells by fluorescence polarization assay
Sequence (O00763 whole entry): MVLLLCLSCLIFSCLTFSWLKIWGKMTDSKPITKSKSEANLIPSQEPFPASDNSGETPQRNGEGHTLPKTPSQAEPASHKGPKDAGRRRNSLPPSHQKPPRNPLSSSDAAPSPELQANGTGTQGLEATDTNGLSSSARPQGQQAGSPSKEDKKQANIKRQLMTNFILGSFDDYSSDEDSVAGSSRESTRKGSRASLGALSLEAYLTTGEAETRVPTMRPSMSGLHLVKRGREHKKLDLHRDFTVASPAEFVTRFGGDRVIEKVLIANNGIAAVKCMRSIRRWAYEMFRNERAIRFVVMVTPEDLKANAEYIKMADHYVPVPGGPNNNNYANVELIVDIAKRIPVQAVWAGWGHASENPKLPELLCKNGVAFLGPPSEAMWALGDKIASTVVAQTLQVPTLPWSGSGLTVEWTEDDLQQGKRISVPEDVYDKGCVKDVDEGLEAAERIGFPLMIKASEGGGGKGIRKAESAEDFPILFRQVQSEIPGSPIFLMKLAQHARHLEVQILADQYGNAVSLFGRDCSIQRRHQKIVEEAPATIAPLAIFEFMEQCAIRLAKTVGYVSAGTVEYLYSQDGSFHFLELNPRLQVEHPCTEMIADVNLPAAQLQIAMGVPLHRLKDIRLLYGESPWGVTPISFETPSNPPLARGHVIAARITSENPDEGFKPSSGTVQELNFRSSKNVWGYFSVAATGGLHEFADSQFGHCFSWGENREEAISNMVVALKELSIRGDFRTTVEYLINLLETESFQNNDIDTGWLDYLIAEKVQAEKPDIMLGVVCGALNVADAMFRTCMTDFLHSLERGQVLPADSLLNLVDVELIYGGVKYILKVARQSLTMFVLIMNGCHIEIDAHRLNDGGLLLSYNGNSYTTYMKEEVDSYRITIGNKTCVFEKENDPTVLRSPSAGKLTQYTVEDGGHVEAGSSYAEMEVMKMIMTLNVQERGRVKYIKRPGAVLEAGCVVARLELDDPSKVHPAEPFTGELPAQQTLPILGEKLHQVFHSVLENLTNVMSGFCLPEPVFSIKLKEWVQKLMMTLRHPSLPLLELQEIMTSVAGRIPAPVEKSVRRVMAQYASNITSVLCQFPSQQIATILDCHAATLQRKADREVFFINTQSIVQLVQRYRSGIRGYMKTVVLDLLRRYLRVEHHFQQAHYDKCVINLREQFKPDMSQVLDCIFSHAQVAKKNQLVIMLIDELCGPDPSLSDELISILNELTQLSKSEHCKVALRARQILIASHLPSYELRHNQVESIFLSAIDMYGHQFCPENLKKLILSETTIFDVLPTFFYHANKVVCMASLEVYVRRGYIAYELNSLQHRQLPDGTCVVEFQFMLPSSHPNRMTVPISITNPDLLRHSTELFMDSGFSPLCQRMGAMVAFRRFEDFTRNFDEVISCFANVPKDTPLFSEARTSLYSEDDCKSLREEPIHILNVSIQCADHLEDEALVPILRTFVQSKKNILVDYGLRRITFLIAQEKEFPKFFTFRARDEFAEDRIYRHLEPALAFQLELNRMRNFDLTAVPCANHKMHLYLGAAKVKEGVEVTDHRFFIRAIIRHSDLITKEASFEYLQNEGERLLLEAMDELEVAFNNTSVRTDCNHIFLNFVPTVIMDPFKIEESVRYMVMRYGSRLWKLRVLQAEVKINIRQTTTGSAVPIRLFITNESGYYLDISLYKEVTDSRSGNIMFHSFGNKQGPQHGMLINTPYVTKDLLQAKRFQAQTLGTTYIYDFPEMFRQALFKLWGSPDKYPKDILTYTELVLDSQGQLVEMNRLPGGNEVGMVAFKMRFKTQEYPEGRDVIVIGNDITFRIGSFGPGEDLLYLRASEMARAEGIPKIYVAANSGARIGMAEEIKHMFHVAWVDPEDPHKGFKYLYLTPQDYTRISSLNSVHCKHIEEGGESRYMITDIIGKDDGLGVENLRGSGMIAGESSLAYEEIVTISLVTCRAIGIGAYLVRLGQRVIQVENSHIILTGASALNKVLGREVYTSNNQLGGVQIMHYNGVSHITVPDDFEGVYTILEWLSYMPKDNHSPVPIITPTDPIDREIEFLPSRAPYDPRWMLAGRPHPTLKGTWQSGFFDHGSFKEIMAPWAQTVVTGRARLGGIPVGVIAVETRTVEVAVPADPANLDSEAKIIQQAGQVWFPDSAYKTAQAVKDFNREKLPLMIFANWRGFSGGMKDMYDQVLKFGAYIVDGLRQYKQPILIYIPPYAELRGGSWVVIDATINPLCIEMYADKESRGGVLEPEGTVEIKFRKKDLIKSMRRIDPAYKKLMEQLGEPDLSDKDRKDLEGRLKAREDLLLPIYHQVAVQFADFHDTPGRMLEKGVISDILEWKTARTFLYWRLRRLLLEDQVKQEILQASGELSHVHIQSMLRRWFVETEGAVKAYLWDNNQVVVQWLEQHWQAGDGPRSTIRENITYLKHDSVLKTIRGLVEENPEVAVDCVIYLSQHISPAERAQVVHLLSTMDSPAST
pIC50: −log10 of the molar value.
We use 6 as the dividing line for pIC50: on or above the line is fulfilled, below is not fulfilled.

Below, 4 molecules whose answers are already recorded.
Cc1cc(C(=O)N2CCC3(CC2)CCN(C(=O)OCC(C)(C)C)[C@@H]3C)cc2cn[nH]c12    fulfilled
Cc1cc(C(=O)N2CCC3(CCN(C(=O)OCc4ccccc4)C3)CC2)cc2cn[nH]c12    not fulfilled
Cc1cc(C(=O)N2CCC3(CC2)CCN(C(=O)OCC(C)(C)C)[C@H]3C)cc2cn[nH]c12    fulfilled
Cc1cc(C(=O)N2CCC3(CCN(C(=O)OC(C)(C)C)C3)CC2C)cc2cn[nH]c12 (stereo in doubt; 3.3.1)    not fulfilled

Next item in the queue.
Query: Does the molecule Cc1cc(C(=O)N2CCC3(CC2C)CN(C(=O)OC(C)(C)C)C3)cc2cn[nH]c12 (centres undefined) have recorded pIC50 that is 6 or more?
Result: not fulfilled

====

Can you tell me log10 of IC50 for the items I'm about to list?
molecular target: Acetyl-CoA carboxylase 2 (Homo sapiens); experiment: Inhibition of recombinant human ACC2 expressed in CHO cells by fluorescence polarization assay
Quick note: numbers are log10 of IC50, with µM as the unit.

Record excerpt, results attached:
Cc1cc(C(=O)N2CC3(CCN(C(=O)OC(C)(C)C)CC3)C2)cc2cn[nH]c12    0.38
Cc1cc(C(=O)N2CCC3(CC2)CN(C(=O)OC(C)(C)C)C3C)cc2cn[nH]c12 (stereo unspecified)    -0.05
Cc1cc(C(=O)N2CCC3(CCN(C(=O)OC(C)(C)C)CC3)C2)cc2cn[nH]c12    0.34
Cc1cc(C(=O)N2CCC3(CCN(C(=O)OC(C)C)C3)CC2)cc2cn[nH]c12    0.65
Cc1cc(C(=O)N2CCC3(CCN(C(=O)OC(C)(C)C)C3)C2)cc2cn[nH]c12 (stereo unspecified)    1.30

Items follow; give log10 of IC50 for each.
1. Cc1cc(C(=O)N2CCC3(CC2)CN(C(=O)OCC(C)(C)C)C3)cc2cn[nH]c12
2. Cc1cc(C(=O)N2CCC3(CC2C)C[C@H](C)N(C(=O)OCC(C)(C)C)C3)cc2cn[nH]c12 (stereo partly specified)
3. Cc1cc(C(=O)N2CCC3(CCN(C(=O)O[C@H](C)c4ccccc4)C3)CC2)cc2cn[nH]c12
4. Cc1cc(C(=O)N2CCC3(CC2C)C[C@@H](C)N(C(=O)OCC(C)(C)C)C3)cc2cn[nH]c12 (stereo partly specified)

Result:
1. 0.15
2. 0.74
3. -0.59
4. 0.04

====

assay: Inhibition of acetyl-CoA carboxylase in rat cryopreserved hepatocytes assessed as suppression of de novo lipogenesis; type: cell-based; details: hepatocyte
Can you tell me IC50 for the items I'm about to list?
Answers are plain numbers, in nM.

Items follow; give IC50 for each.
1. CC(C)(C)n1cc2c(n1)C(=O)CC1(CCN(C(=O)c3ccc4[nH]ncc4c3)CC1)O2
2. Cc1cc(C(=O)N2CCC3(CC2)CCN(C(=O)OCC(C)(C)C)[C@H]3C)cc2cn[nH]c12

Result:
1. 93
2. 300
